Documented GI50 across a set of compounds
tested on: SNB-75 CNS; assay: NCI tumour cell line growth inhibition, 48 h

Record excerpt, results attached:
COc1ccc(-c2cc(-c3ccc(Cl)cc3)nc(SCCCC(=O)NO)n2)cc1OC :: 1.49 µM
O=C(NNC1=NS(=O)(=O)c2ccccc2N1c1ccccc1)c1cnccn1 :: > 100 µM
Cc1cc2c(C(C)C)c(O)c(O)c(/C=N/O)c2c(O)c1-c1c(C)cc2c(C(C)C)c(O)c(O)c(/C=N/O)c2c1O :: 3.57 µM
CCN(CC)CCOc1ccc(/C(=C(\C)Cc2ccc(OC)cc2)c2ccc(O)cc2)cc1 :: 1.58 µM

Okay, next one:
Requested field: GI50. Item: CN1CCC(=C(c2ccc(Cl)cc2)c2ccccn2)CC1
31 µM

Numbers sourced from PubChem BioAssay (NCI).
